assay: Displacement of [3H](-)-cytisine from rat brain nicotinic acetylcholine receptors (nAChR)
assay_readout: pKi
One number for each entry, as −log10 of the molar value.

compound	pKi
Cc1cc([C@H]2C[C@H](CO)CN2C)on1	5.22

For each listed entry, give its pKi.
1. Cc1cc([C@@H]2CCCN2C)on1
2. Cc1cc([C@@H]2C[C@@H](CO)CN2C)on1
3. Cc1cc([C@H]2C[C@H](C)CN2C)on1
4. Cc1cc([C@@H]2C[C@@H](C)CN2C)on1
5. Cc1cc([C@@H]2C[C@H](CO)CN2C)on1 (single isomer, unassigned)
6. Cc1cc([C@H]2CCCN2C)on1
7. Cc1cc([C@H]2C[C@H](CF)CN2C)on1
8. Cc1cc([C@@H]2C[C@@H](CF)CN2C)on1

Outgoing:
8.52
5.18
6.02
7.72
5.09
8.13
4.77
6.81

Give pKi for each listed item.
1. Cc1cc([C@@H]2C[C@H](CF)CN2C)on1
2. Cc1cc([C@H]2C[C@@H](CO)CN2C)on1

Outgoing:
1. 5.77
2. 4.96
